Biological target: human GPCR sphingosine 1-phosphate receptor 2 (Homo sapiens)
Construct: host or cells: CHO
Sequence (O95136 whole entry): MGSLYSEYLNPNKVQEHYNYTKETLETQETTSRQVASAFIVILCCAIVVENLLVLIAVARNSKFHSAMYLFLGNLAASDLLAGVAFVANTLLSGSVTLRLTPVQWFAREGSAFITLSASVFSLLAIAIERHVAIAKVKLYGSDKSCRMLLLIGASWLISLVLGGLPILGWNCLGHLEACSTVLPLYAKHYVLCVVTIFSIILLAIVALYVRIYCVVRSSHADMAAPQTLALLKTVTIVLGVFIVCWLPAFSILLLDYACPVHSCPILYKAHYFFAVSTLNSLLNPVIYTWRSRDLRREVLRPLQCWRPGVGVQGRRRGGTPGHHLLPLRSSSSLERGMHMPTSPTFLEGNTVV
Test: S1PR2 antagonist Ca2+ flux assay
Format: cell-based
Details: antagonist mode, CHO-S1PR2 cells, S1P at EC80, Ca2+ fluorescence; read-out: S1P2 EC50 (nM), S1P2 antagonist EC50
Exercise: for every item that follows, state its recorded EC50.
Units required after the number.

**Q:** What value of EC50 on human GPCR sphingosine 1-phosphate receptor 2 (Homo sapiens) does COC(C)(C)CNC(=O)Cn1nc(Cc2nc3cc(OCC(F)F)c(C#N)cc3[nH]2)c2ccccc2c1=O [Compound 182] have?
**A:** 17.3 nM

**Q:** Then O=C(Cn1nc(Cc2nc3cc(OC(F)(F)F)c(Cl)cc3[nH]2)c2ccccc2c1=O)N[C@H]1CCC[C@H]1O [Compound 140] ?
**A:** 13 nM

**Q:** Then CC(C)(C)CNC(=O)Cn1nc(Cc2nc3cc(OCC(F)F)c(C#N)cc3[nH]2)c2ccccc2c1=O [Compound 202] ?
**A:** 6.86 nM

----------
Biological target: S1PR2 (Homo sapiens)
Construct: expressed in transfected cells
Assay: S1PR2 binding assay (competition with radioactively labeled S1P, SpA)
Settings: membranes from stable cell line over expressing S1PR2, SpA beads; read-out: S1P2 EC50 (nM), S1PR2 binding EC50
Exercise: for every item that follows, state its recorded EC50.
Return type: number; implicit unit nM.

**Q:** Item `O=C(O)c1cn(Cc2cn3cc(OCC4CC4)c(Cl)cc3n2)c2ccccc2c1=O` has what recorded EC50?
**A:** 459

**Q:** Then `N#Cc1cc2[nH]c(Cn3nc(CC(=O)N4CCOCC4)c(=O)c4ccccc43)nc2cc1OCC(F)F` ?
**A:** 92.7

**Q:** Then CC(C(=O)O)n1nc(Cc2cn3cc(OCC4CC4)c(C#N)cc3n2)c2ccccc2c1=O (stereo not shown) ?
**A:** 120

**Q:** Then `N#Cc1cc2[nH]c(Cc3nn(CC(=O)N4CCC(C#N)CC4)c(=O)c4ccccc34)nc2cc1OCC(F)F` ?
**A:** 265
